- Test system: Escherichia coli TOP10
- procedure-text: shrunken log2 fold change of peptide-encoding DNA abundance (4.5 h post-induction vs induction); higher = less antimicrobial activity (less host growth inhibition)
- run-parameters: time post-induction: 4.5 h; library: site-saturation at positions 5, 18, 19, 20
quantity-name: shrunken log2 fold change

* RRIRYRPPRLPRPRPRPKAMPRP | -0.0317
* RRIRTRPPRLPRPRPRPDCLPRP | -0.0333
* RRIRTRPPRLPRPRPRPGRSPRP | 0.194
* RRIRDRPPRLPRPRPRPFTTPRP | -0.132
* RRIRHRPPRLPRPRPRPHFPPRP | -0.324
* RRIRCRPPRLPRPRPRPCKFPRP | -0.431
* RRIRYRPPRLPRPRPRPPACPRP | -0.146
* RRIRNRPPRLPRPRPRPDPEPRP | 0.211
* RRIRYRPPRLPRPRPRPHMIPRP | -0.734
* RRIRRRPPRLPRPRPRPGFNPRP | 0.0515
* RRIRRRPPRLPRPRPRPLLFPRP | 0.278
* RRIRFRPPRLPRPRPRPSGIPRP | -0.287
* RRIRCRPPRLPRPRPRPCSIPRP | -0.143
* RRIRNRPPRLPRPRPRPHKAPRP | 0.00883
* RRIRFRPPRLPRPRPRPPRRPRP | 0.826

---

- Tested on: Escherichia coli TOP10
- procedure-text: shrunken log2 fold change of peptide-encoding DNA abundance (4.5 h post-induction vs induction); higher = less antimicrobial activity (less host growth inhibition)
- run-parameters: time post-induction: 4.5 h; library: site-saturation at positions 5, 18, 19, 20
Binary classification by shrunken log2 fold change, with 0.04 as an inclusive lower bound for rule met; all other cases are rule not met.

- RRIRNRPPRLPRPRPRPAMRPRP: rule met
- RRIRRRPPRLPRPRPRPVDLPRP: rule met
- RRIRSRPPRLPRPRPRPAIVPRP: rule met
- RRIRARPPRLPRPRPRPSYPPRP: rule not met
- RRIRSRPPRLPRPRPRPRPKPRP: rule met
- RRIRKRPPRLPRPRPRPNNWPRP: rule met
- RRIRQRPPRLPRPRPRPWSFPRP: rule not met
- RRIRPRPPRLPRPRPRPRSHPRP: rule met
- RRIRPRPPRLPRPRPRPFIIPRP: rule not met
- RRIRKRPPRLPRPRPRPEQIPRP: rule not met
- RRIRYRPPRLPRPRPRPYMWPRP: rule not met
- RRIRSRPPRLPRPRPRPRIVPRP: rule not met
- RRIRKRPPRLPRPRPRPLKMPRP: rule met
- RRIRDRPPRLPRPRPRPPAKPRP: rule met
- RRIRLRPPRLPRPRPRPHMDPRP: rule not met
- RRIRGRPPRLPRPRPRPKMFPRP: rule met
- RRIRYRPPRLPRPRPRPIHHPRP: rule not met
- RRIRARPPRLPRPRPRPGLGPRP: rule met
- RRIRLRPPRLPRPRPRPNCEPRP: rule not met
- RRIRGRPPRLPRPRPRPGMLPRP: rule met
- RRIRLRPPRLPRPRPRPCYRPRP: rule not met
- RRIRSRPPRLPRPRPRPCEWPRP: rule not met
- RRIRGRPPRLPRPRPRPPADPRP: rule met
- RRIRDRPPRLPRPRPRPAFHPRP: rule not met
- RRIRMRPPRLPRPRPRPKVSPRP: rule not met
- RRIRERPPRLPRPRPRPPYKPRP: rule not met
- RRIRMRPPRLPRPRPRPHSCPRP: rule not met
- RRIRMRPPRLPRPRPRPCLCPRP: rule not met
- RRIRYRPPRLPRPRPRPELKPRP: rule not met
- RRIRIRPPRLPRPRPRPDCFPRP: rule not met
- RRIRKRPPRLPRPRPRPRVWPRP: rule met
- RRIRFRPPRLPRPRPRPSVTPRP: rule not met

---

- Tested on: Escherichia coli TOP10
- procedure-text: shrunken log2 fold change of peptide-encoding DNA abundance (4.5 h post-induction vs induction); higher = less antimicrobial activity (less host growth inhibition)
- run-parameters: time post-induction: 4.5 h; library: site-saturation at positions 5, 18, 19, 20
Binary classification by shrunken log2 fold change, with -0.004 as an inclusive lower bound for Yes; all other cases are No.

• RRIRGRPPRLPRPRPRPPVKPRP = Yes
• RRIRGRPPRLPRPRPRPGDEPRP = Yes
• RRIRNRPPRLPRPRPRPQIPPRP = Yes
• RRIRVRPPRLPRPRPRPKFPPRP = Yes
• RRIRVRPPRLPRPRPRPNDHPRP = No
• RRIRDRPPRLPRPRPRPMCPPRP = Yes
• RRIRIRPPRLPRPRPRPMFVPRP = No
• RRIRFRPPRLPRPRPRPDKAPRP = No
• RRIRYRPPRLPRPRPRPSRGPRP = No
• RRIRPRPPRLPRPRPRPGACPRP = Yes
• RRIRCRPPRLPRPRPRPWPGPRP = Yes
• RRIRNRPPRLPRPRPRPLGFPRP = Yes
• RRIRLRPPRLPRPRPRPDFNPRP = No
• RRIRARPPRLPRPRPRPTKSPRP = Yes

---

- Test system: Escherichia coli TOP10
- procedure-text: shrunken log2 fold change of peptide-encoding DNA abundance (4.5 h post-induction vs induction); higher = less antimicrobial activity (less host growth inhibition)
- run-parameters: time post-induction: 4.5 h; library: site-saturation at positions 5, 18, 19, 20
Below, each entry is listed with its recorded shrunken log2 fold change.
quantity-name: shrunken log2 fold change

• RRIRSRPPRLPRPRPRPCYIPRP = -0.582
• RRIRIRPPRLPRPRPRPPKWPRP = -0.00369
• RRIRGRPPRLPRPRPRPSLQPRP = 1.07
• RRIRVRPPRLPRPRPRPNACPRP = 0.215
• RRIRLRPPRLPRPRPRPYINPRP = -0.584
• RRIRRRPPRLPRPRPRPCVYPRP = -0.42
• RRIRSRPPRLPRPRPRPVTEPRP = -0.0851
• RRIRERPPRLPRPRPRPLNPPRP = -0.0394
• RRIRLRPPRLPRPRPRPPLPPRP = 0.502
• RRIRWRPPRLPRPRPRPMPKPRP = 0.115
• RRIRGRPPRLPRPRPRPSMWPRP = 0.291
• RRIRSRPPRLPRPRPRPGHMPRP = 0.0805
• RRIRARPPRLPRPRPRPPDTPRP = 0.764
• RRIRPRPPRLPRPRPRPVSAPRP = 0.249
• RRIRIRPPRLPRPRPRPVTVPRP = 0.129

---

- System: Escherichia coli TOP10;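 also: peptides expressed intracellularly from a pBAD plasmid library in pooled LB shake-flask culture, induced with 0.3% L-arabinose, DNA abundance read by NGS, three biological replicates, DESeq2 with apeglm shrinkage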
- procedure-text: shrunken log2 fold change of peptide-encoding DNA abundance (4.5 h post-induction vs induction); higher = less antimicrobial activity (less host growth inhibition)
- run-parameters: time post-induction: 4.5 h; library: site-saturation at positions 5, 18, 19, 20
Binary classification by shrunken log2 fold change, with 0.03 as an inclusive lower bound for MET; all other cases are NOT MET.

- RRIRMRPPRLPRPRPRPVMFPRP: MET
- RRIRKRPPRLPRPRPRPPDIPRP: MET
- RRIRRRPPRLPRPRPRPWSMPRP: NOT MET
- RRIRSRPPRLPRPRPRPAVYPRP: NOT MET
- RRIRCRPPRLPRPRPRPSVLPRP: MET
- RRIRERPPRLPRPRPRPKTLPRP: NOT MET
- RRIRPRPPRLPRPRPRPISEPRP: NOT MET
- RRIRLRPPRLPRPRPRPREYPRP: MET
- RRIRFRPPRLPRPRPRPKGFPRP: MET
- RRIRTRPPRLPRPRPRPEQWPRP: NOT MET
- RRIRNRPPRLPRPRPRPRSEPRP: MET
- RRIRDRPPRLPRPRPRPLDDPRP: MET
- RRIRLRPPRLPRPRPRPRPMPRP: MET
- RRIRCRPPRLPRPRPRPDPCPRP: NOT MET
- RRIRLRPPRLPRPRPRPRTHPRP: MET
- RRIRARPPRLPRPRPRPSTMPRP: NOT MET
- RRIRHRPPRLPRPRPRPWSSPRP: NOT MET
- RRIRFRPPRLPRPRPRPFLVPRP: NOT MET
- RRIRNRPPRLPRPRPRPKKNPRP: NOT MET
- RRIRSRPPRLPRPRPRPQMMPRP: NOT MET
- RRIRMRPPRLPRPRPRPSQRPRP: MET
- RRIRSRPPRLPRPRPRPCMWPRP: NOT MET
- RRIRRRPPRLPRPRPRPGEQPRP: MET
- RRIRNRPPRLPRPRPRPEYRPRP: NOT MET
- RRIRVRPPRLPRPRPRPCHAPRP: NOT MET
- RRIRIRPPRLPRPRPRPINVPRP: NOT MET
- RRIRLRPPRLPRPRPRPPRTPRP: MET
- RRIRNRPPRLPRPRPRPADYPRP: NOT MET
- RRIRYRPPRLPRPRPRPPFHPRP: NOT MET
- RRIRKRPPRLPRPRPRPRSVPRP: MET
- RRIRVRPPRLPRPRPRPDISPRP: NOT MET
- RRIRCRPPRLPRPRPRPRLHPRP: NOT MET

Reference source for all entries: the supplement of paper PMC9112550
